Reference source: ChEMBL document CHEMBL2177000

measurement label: IC50 (nM)
The reply should be a number in nM, with the unit left off.

**Q:** Write IC50 of CN1C[C@H](C(=O)Nc2ccc(Cl)cc2)[C@@H](c2ccc(/C=C/C(=O)Nc3ccccc3N)cc2F)C1 (racemic) ; system used: Histone deacetylase 1 (Homo sapiens)
Sequence (Q13547 whole entry): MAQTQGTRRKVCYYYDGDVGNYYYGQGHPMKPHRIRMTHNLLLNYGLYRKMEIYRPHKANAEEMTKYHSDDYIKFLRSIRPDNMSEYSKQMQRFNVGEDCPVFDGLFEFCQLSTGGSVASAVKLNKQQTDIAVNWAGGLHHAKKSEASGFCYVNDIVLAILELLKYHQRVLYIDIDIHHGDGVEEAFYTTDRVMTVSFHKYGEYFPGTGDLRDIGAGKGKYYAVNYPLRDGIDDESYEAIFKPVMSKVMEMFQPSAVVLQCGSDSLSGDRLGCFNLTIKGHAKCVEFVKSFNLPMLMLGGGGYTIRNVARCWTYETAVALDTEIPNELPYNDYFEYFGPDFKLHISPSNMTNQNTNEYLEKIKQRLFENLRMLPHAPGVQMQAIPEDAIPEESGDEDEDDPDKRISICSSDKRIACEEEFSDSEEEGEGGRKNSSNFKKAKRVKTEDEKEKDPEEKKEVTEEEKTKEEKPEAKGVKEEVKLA
**A:** 100

----------
Exercise: state measured Activity for each of the molecules provided.
- test target: Histone deacetylase (Homo sapiens) (UniProt Q13547+O15379+Q9UBN7+Q92769+Q9UQL6+Q8WUI4+Q9BY41+Q96DB2+P56524+Q9UKV0+Q969S8)
- assay: Inhibition of Class 1 histone deacetylase in human HeLa cells assessed as induction in p21 protein expression at 3 uM incubated for 16 hrs by luciferase reporter gene assay relative to HDAC inhibitor entinostat
- Assay type: cell-based
- Set-up: scale not given: the % may be the effect or the level left
The reply should be a number in %, with the unit left off.

**Q:** Specify Activity for CN1C[C@H](C(=O)Nc2ccc(F)c(F)c2)[C@@H](c2ccc(/C=C/C(=O)Nc3ccccc3N)cc2)C1 (racemic) and stop.
**A:** 180

**Q:** Specify Activity for Nc1ccccc1NC(=O)/C=C/c1ccc([C@H]2CN(C3CCOCC3)C[C@@H]2C(=O)Nc2ccc(Cl)cc2)cc1 (racemic) and stop.
**A:** 220

**Q:** Specify Activity for CN1C[C@H](C(=O)NC2CCCC2)[C@@H](c2ccc(/C=C/C(=O)Nc3ccccc3N)cc2)C1 (racemic) and stop.
**A:** 180

**Q:** Specify Activity for Cc1cccc(NC(=O)[C@H]2CN(C)C[C@@H]2c2ccc(/C=C/C(=O)Nc3ccccc3N)cc2)c1 (racemic) and stop.
**A:** 350

**Q:** Specify Activity for Nc1ccccc1NC(=O)/C=C/c1ccc(C(NCCO)C(=O)Nc2ccc(C(F)(F)F)cc2)cc1 (racemic) and stop.
**A:** 117

**Q:** Specify Activity for COCCN1C[C@H](C(=O)Nc2ccc(Cl)cc2)[C@@H](c2ccc(/C=C/C(=O)Nc3ccccc3N)cc2)C1 (racemic) and stop.
**A:** 250

**Q:** Specify Activity for CN1C[C@H](C(=O)Nc2ccncc2)[C@@H](c2ccc(/C=C/C(=O)Nc3ccccc3N)cc2)C1 (racemic) and stop.
**A:** 50

----------
- assay: Volume of distribution at steady state in BALB/C mouse at 5 mg/kg, po or 1 mg/kg, iv by LC-MS/MS method
- Type: ADME, organism-based
- experimental setup: in vivo, read-out: Vdss
measurement label: Vd (L)
The reply should be a number in L, with the unit left off.

**Q:** Specify Vd for CN1C[C@H](C(=O)Nc2ccc(F)cc2)[C@@H](c2ccc(/C=C/C(=O)Nc3ccccc3N)cc2)C1 (racemic) and stop.
**A:** 16

**Q:** Specify Vd for CN1C[C@H](C(=O)Nc2ccc(Cl)cc2)[C@@H](c2ccc(/C=C/C(=O)Nc3ccccc3N)cn2)C1 (racemic) and stop.
**A:** 4

----------
- assay: Half life in BALB/C mouse at 5 mg/kg, po or 1 mg/kg, iv by LC-MS/MS method
- Type: ADME, organism-based
- experimental setup: in vivo
Exercise: state measured half-life for each of the compounds provided.
The reply should be a number in h, with the unit left off.

**Q:** Specify half-life for CN1C[C@H](C(=O)Nc2ccc(Cl)cc2)[C@@H](c2ccc(/C=C/C(=O)Nc3ccccc3N)cn2)C1 (racemic) and stop.
**A:** 4.6

**Q:** Specify half-life for CN1C[C@H](C(=O)Nc2ccc(F)cc2)[C@@H](c2ccc(/C=C/C(=O)Nc3ccccc3N)cc2)C1 (racemic) and stop.
**A:** 5
